- assayInfo: The drug is tested on the gut metagenome community of A-01 with ENA study accession number: PRJEB31790 for biotransformation under microaerobic condition. The drug concentrations were measured over 7 timepoints collected between 0 and 12 hours of incubation by liquid-chromatography-coupled mass spectrometry (LC–MS)
- Assay type: ADME
- Design: dose 5 uM, timepoint 0, 0.75, 1.5, 3, 6, 9, 12 hours
- measurementParameters: 5 µM

{"compound": "CO[C@H]1C[C@@H]2CC[C@@H](C)[C@@](O)(O2)C(=O)C(=O)N2CCCC[C@H]2C(=O)O[C@H]([C@H](C)C[C@@H]2CC[C@@H](OCCO)[C@H](OC)C2)CC(=O)[C@H](C)/C=C(\\C)[C@@H](O)[C@@H](OC)C(=O)[C@H](C)C[C@H](C)/C=C/C=C/C=C/1C", "Bacterial Biotransformation": "Compound metabolized"}
{"compound": "C=CC[C@@H]1/C=C(\\C)C[C@H](C)C[C@H](OC)[C@H]2O[C@@](O)(C(=O)C(=O)N3CCCC[C@H]3C(=O)O[C@H](/C(C)=C/[C@@H]3CC[C@@H](O)[C@H](OC)C3)[C@H](C)[C@@H](O)CC1=O)[C@H](C)C[C@@H]2OC.O", "Bacterial Biotransformation": "Compound NOT metabolized"}
{"compound": "NS(=O)(=O)c1cc(C(=O)O)c(NCc2ccco2)cc1Cl [FUROSEMIDE]", "Bacterial Biotransformation": "Compound NOT metabolized"}
{"compound": "CCOC(=O)C1=C(COCCN)NC(C)=C(C(=O)OC)C1c1ccccc1Cl (stereo unspecified)", "Bacterial Biotransformation": "Compound NOT metabolized"}
{"compound": "COc1ccc([C@@H]2Sc3ccccc3N(CCN(C)C)C(=O)[C@@H]2OC(C)=O)cc1", "Bacterial Biotransformation": "Compound metabolized"}
{"compound": "CCC(C)(C)C(=O)O[C@H]1C[C@@H](C)C=C2C=C[C@H](C)[C@H](CC[C@@H]3C[C@@H](O)CC(=O)O3)[C@H]21", "Bacterial Biotransformation": "Compound NOT metabolized"}
